Target: human EP3 receptor (Homo sapiens)
Sequence (P43115 whole entry): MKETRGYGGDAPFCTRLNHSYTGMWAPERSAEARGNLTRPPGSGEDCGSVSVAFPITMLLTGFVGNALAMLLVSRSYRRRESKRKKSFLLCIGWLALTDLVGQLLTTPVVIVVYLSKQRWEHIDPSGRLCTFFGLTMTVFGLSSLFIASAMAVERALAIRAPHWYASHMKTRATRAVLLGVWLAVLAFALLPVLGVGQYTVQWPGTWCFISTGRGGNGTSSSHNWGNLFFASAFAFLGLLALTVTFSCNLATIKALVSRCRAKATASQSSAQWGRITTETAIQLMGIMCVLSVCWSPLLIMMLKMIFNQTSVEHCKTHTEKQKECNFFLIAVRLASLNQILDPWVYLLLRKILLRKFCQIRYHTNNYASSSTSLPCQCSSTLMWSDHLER
Assay: Cellular in vitro assay for determining EP3 receptor activity (human EP3 cell line, sulprostone-stimulated calcium luminescence)
Conditions: CHO cells expressing human EP3 and mitochondrial Clytin; antagonist mode, sulprostone at EC50; read-out: EP3 CHO mtCLY ANTAG IC50
pIC50: −log10 of the molar value.
Measured attribute: pIC50

{"Compound": "COC[C@H](NC(=O)c1cc2c(=O)[nH]c(-c3ccc(C)c(C)c3)cn2n1)c1ccccc1", "pIC50": 8.89}
{"Compound": "CC(C)(O)[C@@H](NC(=O)c1cc2c(=O)[nH]c(-c3ccc4c(c3)CCCC4)cn2n1)c1ccc(F)cc1", "pIC50": 8.55}
{"Compound": "Cc1ccc(-c2cn3nc(C(=O)NCC(O)C(F)F)c(C4CC4)c3c(=O)[nH]2)cc1F (single isomer, unassigned) [6-371]", "pIC50": 8.57}
{"Compound": "C[C@@H](CO)NC(=O)c1nn2cc(-c3ccc4ccccc4c3)[nH]c(=O)c2c1C(F)(F)F", "pIC50": 8.03}
{"Compound": "COC[C@@H](NC(=O)c1cc2c(=O)[nH]c(-c3ccc(C)c(C)c3)cn2n1)c1ccccc1", "pIC50": 8.94}

P. CCn1cc(CNC(=O)c2nn3cc(-c4ccc(C)c(C)c4)[nH]c(=O)c3c2Cl)c(C)n1
Q. CC(C)(O)[C@@H](NC(=O)c1nn2cc(-c3ccc(Cl)c(Cl)c3)[nH]c(=O)c2c1C1CC1)c1ccc(F)cc1
Name the one with the greater pIC50 value, either P or Q as given. Mark your answer with the label of the selected entry. P
(P: 8.94, Q: 8.72)
